target: recombinant full-length Pfs48/45 (Plasmodium falciparum 3D7, UniProt Q8I6T1); experiment: ELISA; settings: both partners purified
Sequence (Q8I6T1 28-428): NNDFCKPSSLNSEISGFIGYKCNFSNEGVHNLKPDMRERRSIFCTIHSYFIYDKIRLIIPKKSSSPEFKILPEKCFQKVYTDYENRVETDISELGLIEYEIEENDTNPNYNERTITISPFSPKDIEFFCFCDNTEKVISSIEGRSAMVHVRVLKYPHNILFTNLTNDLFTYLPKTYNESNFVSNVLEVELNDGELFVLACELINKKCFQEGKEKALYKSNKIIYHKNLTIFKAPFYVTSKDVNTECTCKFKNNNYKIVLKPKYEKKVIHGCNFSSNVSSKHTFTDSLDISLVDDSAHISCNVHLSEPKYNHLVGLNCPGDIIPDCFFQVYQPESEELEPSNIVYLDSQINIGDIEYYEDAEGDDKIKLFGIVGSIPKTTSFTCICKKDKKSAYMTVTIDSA
recorded-endpoint: binding result

RUPA-164 (antibody, V domains shown, human IgG1; source: recombinant human IgG1, 293T (Protein A purified) or GenScript) VH: QVQLQESGPGLVKPSETLSLTCSVSGGSMTSFYWSWIRQPPGKGLEWIGYVYYNGTTNYKPSLKSRVTISVDMSKNQVSLKLSSVTAADTAVYYCARDRVVGSYYYGMDVWGQGTTVTVSS VL: EIVLTQPPVSLSLSPGEGATLSCRASQSVSSSYLAWYQQKPGQAPRLLMYSASRRATGIPDRFTGSGSGTDFTLTISRLEPEDFALYYCQHYGGSPRETFGQGTKVEIK    binds
RUPA-114 (antibody, V domains shown, human IgG1; source: recombinant human IgG1, 293T (Protein A purified) or GenScript) VH: QVYLVQSGAEVKKPGASVKVSCKASGYDFTSYGIAWVRQAPGQGLEWMGWIGGYDDKTDYAQNLQGRFTVTTDTSTSTAYMELRSLKSDDTAVYYCARGGDRGDGLRFYYFALDVWGQGTTVTVSS VL: DIVLAQSPGTLSLSPGEGATLSCRASQSIYNSYLAWYQHKPGQAPRLLIYGASSRATGIPDRFSGSGSGTDFTLTISRLEPEDFAVYYCQLYGRSSWTFGQGTKVEIK    binds
RUPA-117 (antibody, V domains shown, human IgG1; source: recombinant human IgG1, 293T (Protein A purified) or GenScript) VH: QLQLQESGPGLVKPSETLSLTCTVSGGSISRSPYYWGWIRQPPGKGLEWFGSVYNNGSTYYNPSLKSRVTISVDTSKNQFSLKLSSVTAADTALYYCARHGGSTGMKVVVIAPPDYWGQGTLVTVSS VL: DIQMTQSPATLSASVGDRVTITCRASQSISIWLAWYQQKPGEAPKLLIYKASSLQSGVPSRFSGSASGTKFSLTISSLQPDDFATFYCQQYHSYPYTFGQGTKLEIK    binds
